Overview of recorded growth inhibition for various compounds
# Assay details: NCI Yeast Anticancer Drug Screen. Data for the mec2-1 strain (AID 157)
# Assay context: S. cerevisiae mec2-1 strain, at 5.0 µM (retest, dose inferred, filed as 0.5), stronger effect = higher value
# Procedure: Growth inhibition of yeast strains with defined genetic alterations is measured as a screen for potential anti-cancer activity. Selected strains with alterations in DNA damage repair or cell cycle control were exposed to compounds and growth inhibition was measured relative to vehicle treated controls. The strain used in this assay is mec2-1
This is part of a sample that, as a whole, favours compounds with a hit. Of some 79,000 tested, about 15% had one in any assay.
The figure you give is taken to be in %; do not add the unit.

Below: 3 compounds and their reported growth inhibition.
CN(C)CCOc1cc2c(c3ccccc13)-c1ccccc1C2O (configuration not stated)	0
NC1C(=O)C2CCCCC2C(=O)C1C(=O)c1ccccc1 (configuration not stated)	4
C(=P(c1ccccc1)(c1ccccc1)c1ccccc1)[P+](c1ccccc1)(c1ccccc1)c1ccccc1	99

Request: // returns reported growth inhibition for input COC(=O)C1=CCC[C@H]2C1(C)CCC(C)C21CC(c2ccoc2)OC1=O (some centres not stated)
Response: 8

Request: Recorded growth inhibition of CC(NNC(=S)N1CCCCCC1)c1cc2ccccc2cn1 (configuration not stated) , please.
Response: 65

Request: What value of growth inhibition has been recorded for this entry: COCC(O)Cn1cc([N+](=O)[O-])nc1C (configuration not stated)
Response: 1

Request: Look up growth inhibition: O=c1c(Cc2c[nH]c3ccccc23)coc2ccccc12
Response: 8

Request: // returns reported growth inhibition for input CCN(CC)c1c(C(=O)/C=C/c2ccc(F)cc2)c(-c2ccccc2)nn(C)c1=O
Response: 2

Request: Given the entry COc1ccc(/C=C/c2cc(OC)c(OC)c(OC)c2)cc1O[Si](C)(C)C(C)(C)C , report its measured growth inhibition.
Response: 0

Request: Item under review: CC(=O)O/C=C1\c2ccccc2CCC1c1ccc2ccccc2c1 (configuration not stated) . Reported growth inhibition?
Response: -4

Request: May I ask what growth inhibition has been recorded for CCCCC(O)(c1ccc2nc(NC(=O)OC)[nH]c2c1)c1cccs1 (configuration not stated) ?
Response: -4

Request: Given the entry O=C(O)C(Br)C(Br)C(=O)Nc1ccc(Cl)c(Cl)c1 (configuration not stated) , report its measured growth inhibition.
Response: 52

Request: Item COc1cccc2c1C1c3ccccc3Sc3cccc(c31)O2 (configuration not stated) has what recorded growth inhibition?
Response: 6
